Measured pIC50, listed per entry.
- system.tested: UniProtKB Q9NR97
- Sequence (Q9NR97 27-1041): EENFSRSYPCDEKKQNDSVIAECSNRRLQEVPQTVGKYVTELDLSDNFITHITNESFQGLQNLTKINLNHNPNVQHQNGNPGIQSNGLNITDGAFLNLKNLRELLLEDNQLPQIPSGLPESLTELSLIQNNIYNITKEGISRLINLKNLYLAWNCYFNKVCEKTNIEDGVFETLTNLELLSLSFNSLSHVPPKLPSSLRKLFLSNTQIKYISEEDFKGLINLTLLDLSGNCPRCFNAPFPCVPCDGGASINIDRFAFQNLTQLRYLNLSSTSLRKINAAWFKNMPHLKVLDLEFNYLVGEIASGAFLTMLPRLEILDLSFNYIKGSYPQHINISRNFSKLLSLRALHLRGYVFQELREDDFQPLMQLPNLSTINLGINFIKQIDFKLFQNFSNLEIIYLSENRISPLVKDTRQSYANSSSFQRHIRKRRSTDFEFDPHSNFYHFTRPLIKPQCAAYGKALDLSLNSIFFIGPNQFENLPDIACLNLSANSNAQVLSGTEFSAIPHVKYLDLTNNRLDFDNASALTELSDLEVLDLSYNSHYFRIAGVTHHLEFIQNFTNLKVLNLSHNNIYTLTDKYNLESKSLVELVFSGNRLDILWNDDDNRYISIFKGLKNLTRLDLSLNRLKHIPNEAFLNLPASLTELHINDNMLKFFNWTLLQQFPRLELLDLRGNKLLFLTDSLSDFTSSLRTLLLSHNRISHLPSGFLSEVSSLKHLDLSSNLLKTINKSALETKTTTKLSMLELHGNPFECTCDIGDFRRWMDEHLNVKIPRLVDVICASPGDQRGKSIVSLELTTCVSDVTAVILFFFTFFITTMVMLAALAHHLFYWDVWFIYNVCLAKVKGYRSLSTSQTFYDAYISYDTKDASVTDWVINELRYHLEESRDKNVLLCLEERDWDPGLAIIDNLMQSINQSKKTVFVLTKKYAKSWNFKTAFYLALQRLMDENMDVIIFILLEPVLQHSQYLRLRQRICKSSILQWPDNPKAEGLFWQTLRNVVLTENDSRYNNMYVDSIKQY
- experiment.notes: TLR8 inhibition reporter assay (HEK-Blue SEAP reporter, R848 stimulation)
- applied.conditions: HEK-Blue cells overexpressing human TLR8, SEAP reporter, R848 15.9 μM, 22 hour incubation
Expect pIC50 as a plain number equal to -log10 of the molar concentration.

Cc1cc(-c2[nH]c3ccc(C4CCN(C5CCOCC5)CC4)cc3c2C(C)C)c(C)n(C)c1=O :: 8.57
Cc1cc(-c2[nH]c3ccc(C4CCN(C(=O)CN(C)C)CC4)cc3c2C(C)C)cn(CC(C)C)c1=O :: 7.00

q: Given the compound Cc1cc(-c2[nH]c3ccc(C4CCN(CC5=NN=CC5)CC4)cc3c2C(C)C)cn(C)c1=O , what is its reported pIC50?
a: 8.66

q: Moving on to CC(C)c1c(-c2ccc(=O)n(C)n2)[nH]c2ccc(C3CCNCC3)cc12
a: 6.97

q: Moving on to Cc1cc(-c2[nH]c3ccc(C4CCN(CC(C)(C)O)CC4)cc3c2C(C)C)cn(C)c1=O
a: 8.89

q: Moving on to Cc1nn(C)cc1CN1CCC(c2ccc3[nH]c(-c4cc(C)c(=O)n(C)c4)c(C(C)C)c3c2)CC1
a: 8.96
